SYSTEM_UNDER_TEST: T1, DFNB31_3, Q9P202
T1 sequence (Q9P202 811-907, limits assumed, looked up): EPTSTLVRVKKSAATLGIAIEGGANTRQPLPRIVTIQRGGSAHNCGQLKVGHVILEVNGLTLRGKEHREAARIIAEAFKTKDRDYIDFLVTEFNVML
PROTOCOL_SUMMARY: holdup assay
Parameters: key: below the threshold = too weak to quantify, mostly under pKd 3.1 to 4
RUN_CONDITIONS: plain residues with an end cap or a label only (N-terminal biotin on a linker: ttds)

| BINDER | pKd |
| --- | --- |
| PSRDRKETSI [RALBP1, Q15311] | below the threshold |
| PFRSRSPSEV [GPR6, P46095] | below the threshold |
| QRPYRRESEI [KCNJ12, Q14500] | below the threshold |
| KLVIKTETTV [RASSF6, Q6ZTQ3] | below the threshold |
